ASSAY_PROCEDURE: Octanol-water partition coefficient, log P of the compound at pH 7.4 by classical shake-flask method
Type: physicochemical
VALUE_KIND: logD
Write the value as a bare number.

SMI: CCCN(CCC)CCCCCCOc1ccc(C(=O)/C=C/c2ccccc2)cc1
VALUE_KIND: logD
RECORDED_MEASUREMENT: 2.07
//
SMI: CN(C)CCCCCCOc1ccc(C(=O)/C=C/c2ccccc2)cc1
VALUE_KIND: logD
RECORDED_MEASUREMENT: 1.8
//
SMI: CCN(CC)CCCCOc1ccc(C(=O)/C=C/c2ccccc2)cc1
VALUE_KIND: logD
RECORDED_MEASUREMENT: 1.74
//
SMI: CN(C)CCOc1ccc(C(=O)/C=C/c2ccccc2)cc1
VALUE_KIND: logD
RECORDED_MEASUREMENT: 1.49
//
SMI: CCCCN(CCCC)CCCCCCOc1ccc(C(=O)/C=C/c2ccccc2)cc1
VALUE_KIND: logD
RECORDED_MEASUREMENT: 2.19

logD reported for this compound CN(C)CCCCCOc1ccc(C(=O)/C=C/c2ccccc2)cc1 : 1.73

logD reported for this compound CCCN(CCC)CCOc1ccc(C(=O)/C=C/c2ccccc2)cc1 : 1.86

----------
Recorded Ratio IC50 for the following compounds
EXPERIMENTAL_TARGET: Cholinesterases; ACHE & BCHE (Homo sapiens) (UniProt P06276+P22303)
Sequence (P06276 whole entry, looked up): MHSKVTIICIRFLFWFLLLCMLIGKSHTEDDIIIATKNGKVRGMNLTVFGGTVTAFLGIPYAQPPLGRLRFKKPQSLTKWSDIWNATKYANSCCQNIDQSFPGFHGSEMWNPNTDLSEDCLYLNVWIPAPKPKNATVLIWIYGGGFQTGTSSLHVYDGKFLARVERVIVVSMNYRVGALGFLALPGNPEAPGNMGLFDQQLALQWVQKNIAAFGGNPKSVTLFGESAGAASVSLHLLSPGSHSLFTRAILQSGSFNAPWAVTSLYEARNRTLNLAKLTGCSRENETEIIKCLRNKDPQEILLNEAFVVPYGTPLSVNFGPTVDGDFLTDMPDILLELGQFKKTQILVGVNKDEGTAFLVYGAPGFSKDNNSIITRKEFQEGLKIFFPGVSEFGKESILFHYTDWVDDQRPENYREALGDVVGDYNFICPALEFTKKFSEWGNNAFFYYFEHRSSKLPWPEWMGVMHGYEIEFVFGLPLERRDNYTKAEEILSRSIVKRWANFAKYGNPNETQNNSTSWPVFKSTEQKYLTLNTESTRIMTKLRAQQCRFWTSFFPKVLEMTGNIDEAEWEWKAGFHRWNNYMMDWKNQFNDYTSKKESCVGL
Sequence (P22303 whole entry, looked up): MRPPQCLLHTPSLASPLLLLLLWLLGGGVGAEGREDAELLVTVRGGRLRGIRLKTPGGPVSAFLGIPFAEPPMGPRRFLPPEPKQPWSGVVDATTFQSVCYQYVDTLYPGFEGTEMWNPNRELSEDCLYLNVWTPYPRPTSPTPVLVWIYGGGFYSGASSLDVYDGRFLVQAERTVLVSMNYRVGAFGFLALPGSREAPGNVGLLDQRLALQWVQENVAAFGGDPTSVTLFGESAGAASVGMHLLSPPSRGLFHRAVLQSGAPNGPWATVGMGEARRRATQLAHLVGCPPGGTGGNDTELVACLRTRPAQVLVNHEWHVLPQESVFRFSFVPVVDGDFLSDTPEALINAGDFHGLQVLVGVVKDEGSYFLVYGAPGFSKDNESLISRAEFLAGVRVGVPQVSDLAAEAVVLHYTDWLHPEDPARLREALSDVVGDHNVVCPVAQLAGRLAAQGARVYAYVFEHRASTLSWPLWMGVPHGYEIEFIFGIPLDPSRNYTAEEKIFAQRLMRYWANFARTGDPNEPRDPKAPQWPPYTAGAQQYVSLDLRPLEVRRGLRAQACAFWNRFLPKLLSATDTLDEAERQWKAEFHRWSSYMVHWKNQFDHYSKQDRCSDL
ASSAY_PROCEDURE: Selectivity ratio of IC50 for BChE (unknown origin) to IC50 for AChE (unknown origin)
Write the value as a bare number.

The following compounds have reported results that may help.
SMI: CCN(CC)CCCCCCOc1ccc(C(=O)/C=C/c2ccccc2)cc1
RECORDED_MEASUREMENT: 0.37
--
SMI: CCCN(CCC)CCCCOc1ccc(C(=O)/C=C/c2ccccc2)cc1
RECORDED_MEASUREMENT: 1.5
--
SMI: CCCCN(CCCC)CCCOc1ccc(C(=O)/C=C/c2ccccc2)cc1
RECORDED_MEASUREMENT: 0.45
--
SMI: CCN(CC)CCCCCOc1ccc(C(=O)/C=C/c2ccccc2)cc1
RECORDED_MEASUREMENT: 0.77
--
SMI: CCCCN(CCCC)CCOc1ccc(C(=O)/C=C/c2ccccc2)cc1
RECORDED_MEASUREMENT: 1.1

Ratio IC50 reported for this compound CCCCN(CCCC)CCCCCCOc1ccc(C(=O)/C=C/c2ccccc2)cc1 : 0.46

Ratio IC50 reported for this compound CCCN(CCC)CCCCCCOc1ccc(C(=O)/C=C/c2ccccc2)cc1 : 0.92

Ratio IC50 reported for this compound CN(C)CCCCCCOc1ccc(C(=O)/C=C/c2ccccc2)cc1 : 0.73

----------
EXPERIMENTAL_TARGET: Acetylcholinesterase (Homo sapiens, UniProt P22303)
ASSAY_PROCEDURE: Non-competitive inhibition of AChE (unknown origin) incubated for 25 mins by Lineweaver-Burk plot analysis
VALUE_KIND: Ki (µM)
Please reply with the bare figure in µM and do not write the unit itself.

Ki reported for this compound CN(C)CCOc1ccc(C(=O)/C=C/c2ccccc2)cc1 : 3.52

----------
EXPERIMENTAL_TARGET: Acetylcholinesterase (Homo sapiens)
ASSAY_PROCEDURE: Competitive inhibition of AChE (unknown origin) incubated for 25 mins by Lineweaver-Burk plot analysis
VALUE_KIND: Ki

Ki reported for this molecule CN(C)CCOc1ccc(C(=O)/C=C/c2ccccc2)cc1 : 7.99 µM

----------
Reported IC50 values, Acetylcholinesterase (Homo sapiens, UniProt P22303).
Please reply with the bare figure in µM and do not write the unit itself.

The following compounds have reported results that may help.
SMI: CCCCN(CCCC)CCCCCOc1ccc(C(=O)/C=C/c2ccccc2)cc1
IC50 (µM): 76.9
--
SMI: CCCCN(CCCC)CCCCOc1ccc(C(=O)/C=C/c2ccccc2)cc1
IC50 (µM): 21.9
--
SMI: CCN(CC)CCCCOc1ccc(C(=O)/C=C/c2ccccc2)cc1
IC50 (µM): 23.2

Acetylcholinesterase (Homo sapiens, UniProt P22303) IC50 of CCCN(CCC)CCCCCOc1ccc(C(=O)/C=C/c2ccccc2)cc1 is 29.5

Acetylcholinesterase (Homo sapiens, UniProt P22303) IC50 of CCCN(CCC)CCCCCCOc1ccc(C(=O)/C=C/c2ccccc2)cc1 is 44.1

Acetylcholinesterase (Homo sapiens, UniProt P22303) IC50 of CCN(CC)CCCOc1ccc(C(=O)/C=C/c2ccccc2)cc1 is 22.5

Acetylcholinesterase (Homo sapiens, UniProt P22303) IC50 of CCN(CC)CCCCCOc1ccc(C(=O)/C=C/c2ccccc2)cc1 is 34.1

----------
EXPERIMENTAL_TARGET: Cholinesterase (Homo sapiens, UniProt P06276)
Sequence (P06276 whole entry): as the sequence (P06276 whole entry, looked up) above
Recorded IC50 for the following compounds
Please reply with the bare figure in µM and do not write the unit itself.

SMI: CCCN(CCC)CCCCCCOc1ccc(C(=O)/C=C/c2ccccc2)cc1
IC50 (µM): 40.7

Cholinesterase (Homo sapiens, UniProt P06276) IC50 of CCCN(CCC)CCOc1ccc(C(=O)/C=C/c2ccccc2)cc1 is 52.6

Cholinesterase (Homo sapiens, UniProt P06276) IC50 of CCCN(CCC)CCCCCOc1ccc(C(=O)/C=C/c2ccccc2)cc1 is 39.7

Cholinesterase (Homo sapiens, UniProt P06276) IC50 of CCCN(CCC)CCCOc1ccc(C(=O)/C=C/c2ccccc2)cc1 is 10.1

Cholinesterase (Homo sapiens, UniProt P06276) IC50 of CCCCN(CCCC)CCCOc1ccc(C(=O)/C=C/c2ccccc2)cc1 is 68.3

Cholinesterase (Homo sapiens, UniProt P06276) IC50 of CN(C)CCCCCOc1ccc(C(=O)/C=C/c2ccccc2)cc1 is 17.4

----------
ASSAY_PROCEDURE: Octanol-water partition coefficient, log P of the compound at pH 7.4 by classical shake-flask method
Assay type: physicochemical
Recorded logD for the following molecules

The following molecules have reported results that may help.
SMI: CCN(CC)CCOc1ccc(C(=O)/C=C/c2ccccc2)cc1
logD: 1.61
--
SMI: CCCN(CCC)CCCCOc1ccc(C(=O)/C=C/c2ccccc2)cc1
logD: 1.95
--
SMI: CCCCN(CCCC)CCCOc1ccc(C(=O)/C=C/c2ccccc2)cc1
logD: 2.06
--
SMI: CCCCN(CCCC)CCCCOc1ccc(C(=O)/C=C/c2ccccc2)cc1
logD: 2.09
--
SMI: CCCN(CCC)CCCOc1ccc(C(=O)/C=C/c2ccccc2)cc1
logD: 1.91
--
SMI: CCCN(CCC)CCCCCOc1ccc(C(=O)/C=C/c2ccccc2)cc1
logD: 2.01
--
SMI: CN(C)CCCCOc1ccc(C(=O)/C=C/c2ccccc2)cc1
logD: 1.64
--
SMI: CCCCN(CCCC)CCOc1ccc(C(=O)/C=C/c2ccccc2)cc1
logD: 2

Now let's try a different one.
logD reported for this molecule CCN(CC)CCCOc1ccc(C(=O)/C=C/c2ccccc2)cc1 : 1.71

----------
Recorded Ratio IC50 for the following compounds
EXPERIMENTAL_TARGET: Cholinesterases; ACHE & BCHE (Homo sapiens) (UniProt P06276+P22303)
ASSAY_PROCEDURE: Selectivity ratio of IC50 for BChE (unknown origin) to IC50 for AChE (unknown origin)
Write the value as a bare number.

The following compounds have reported results that may help.
SMI: CCCN(CCC)CCCOc1ccc(C(=O)/C=C/c2ccccc2)cc1
Ratio IC50: 0.41
//
SMI: CN(C)CCOc1ccc(C(=O)/C=C/c2ccccc2)cc1
Ratio IC50: 4.35
//
SMI: CCN(CC)CCCOc1ccc(C(=O)/C=C/c2ccccc2)cc1
Ratio IC50: 0.89
//
SMI: CN(C)CCCOc1ccc(C(=O)/C=C/c2ccccc2)cc1
Ratio IC50: 3.08
//
SMI: CCCCN(CCCC)CCCCOc1ccc(C(=O)/C=C/c2ccccc2)cc1
Ratio IC50: 1.91
//
SMI: CCN(CC)CCCCOc1ccc(C(=O)/C=C/c2ccccc2)cc1
Ratio IC50: 0.44

Ratio IC50 reported for this compound CN(C)CCCCCOc1ccc(C(=O)/C=C/c2ccccc2)cc1 : 1.33

Ratio IC50 reported for this compound CN(C)CCCCOc1ccc(C(=O)/C=C/c2ccccc2)cc1 : 1.32

Ratio IC50 reported for this compound CCCN(CCC)CCOc1ccc(C(=O)/C=C/c2ccccc2)cc1 : 0.81

----------
Reported IC50 values, Acetylcholinesterase (Homo sapiens).
Please reply with the bare figure in µM and do not write the unit itself.

The following compounds have reported results that may help.
SMI: CCN(CC)CCOc1ccc(C(=O)/C=C/c2ccccc2)cc1
RECORDED_MEASUREMENT: 7.63
--
SMI: CN(C)CCCOc1ccc(C(=O)/C=C/c2ccccc2)cc1
RECORDED_MEASUREMENT: 10.5

Now let's try a different one.
IC50 reported for this compound CN(C)CCCCCOc1ccc(C(=O)/C=C/c2ccccc2)cc1 : 13.1
